Measured MIC, listed per entry for reference.
Tested on: A. baumannii ATCC 17978
Where a name gives a salt, the structure may show the parent alone.

{"compound": "NC1CCC(NCCC(c2cccc(Cl)c2)c2cn(CC3CCCCC3)c3ccccc23)CC1 (stereo not shown) [Compound 170, hydrochloride salt]", "modifier": "=", "MIC, µg/mL": 4}
{"compound": "Cc1cccc(C(CCNC2CCNCC2)c2cn(CC3CCCCC3)c3ccccc23)c1.Cl (stereo not shown)", "modifier": "=", "MIC, µg/mL": 8}
{"compound": "Cl.Cl.NCCCNCCC(c1cn(C2CCCCC2)c2ccccc12)C1CCCCC1 (stereo not shown)", "modifier": "=", "MIC, µg/mL": 4}
{"compound": "Cc1cccc(C(CCNC2CCCCC2)c2cn(CC3CCCCC3)c3ccccc23)c1.Cl (stereo not shown)", "modifier": ">", "MIC, µg/mL": 128}

----------
Test system: K. pneumoniae ATCC 43816
Structures can show the parent of a compound that is named as a salt.
Strictly below 8 µg/mL in MIC: Met. Otherwise: Not met.

{"compound": "NCCCNCCC(c1cccc(OC(F)(F)F)c1)c1cn(C2CCCCC2)c2ccccc12 (stereo not drawn)", "measuredOn": "K. pneumoniae ATCC 43816", "category": "Met"}
{"compound": "Cl.Cl.NCCCNCCC(c1cn(C2CCCCC2)c2ccccc12)C1CCCCC1 (stereo not drawn)", "measuredOn": "K. pneumoniae ATCC 43816", "category": "Met"}
{"compound": "COc1ccccc1-c1ccc2c(c1)c(CCCN[C@H]1CC[C@H](N)CC1)cn2CC1CCCCC1 [Compound 237, hydrochloride salt]", "measuredOn": "K. pneumoniae ATCC 43816", "category": "Met"}
{"compound": "Cc1cccc(C(CCN2CCC(N)CC2)c2cn(CC3CCCCC3)c3ccccc23)c1 (stereo not drawn) [Compound 216, hydrochloride salt]", "measuredOn": "K. pneumoniae ATCC 43816", "category": "Not met"}
{"compound": "Cc1cccc(C(CCNC2CCNCC2)c2cn(CC3CCCCC3)c3ccccc23)c1.Cl (stereo not drawn)", "measuredOn": "K. pneumoniae ATCC 43816", "category": "Met"}
{"compound": "Cc1cccc(C(CC(=O)Nc2ccc(CN)cc2)c2cn(CC3CCCCC3)c3ccccc23)c1.Cl (stereo not drawn)", "measuredOn": "K. pneumoniae ATCC 43816", "category": "Not met"}
{"compound": "Cc1cccc(C(CCNCCCN)c2cn(C3CCCCC3)c3cc(Br)ccc23)c1.Cl.Cl (stereo not drawn)", "measuredOn": "K. pneumoniae ATCC 43816", "category": "Met"}
{"compound": "Cc1cccc(-c2ccc3c(c2)c(CCCNCCCN)cn3C2CCCCC2)c1.Cl.Cl", "measuredOn": "K. pneumoniae ATCC 43816", "category": "Met"}
{"compound": "Cc1cccc(-c2ccc3c(c2)c(C2CCCC(NCCCN)C2)cn3C2CCCCC2)c1 (stereo not drawn)", "measuredOn": "K. pneumoniae ATCC 43816", "category": "Met"}
{"compound": "Cc1cccc(C(CCNC2CCCCC2)c2cn(CC3CCCCC3)c3ccccc23)c1.Cl (stereo not drawn)", "measuredOn": "K. pneumoniae ATCC 43816", "category": "Not met"}
{"compound": "Cc1cccc(C(CCN[C@H]2CC[C@H](N)CC2)c2cn(CC3CCCCC3)c3ccccc23)c1 (stereo partly drawn) [Compound 199, hydrochloride]", "measuredOn": "K. pneumoniae ATCC 43816", "category": "Not met"}
